# Measured On: human A2B receptors (Homo sapiens (Human))
# Sequence (P29275 whole entry): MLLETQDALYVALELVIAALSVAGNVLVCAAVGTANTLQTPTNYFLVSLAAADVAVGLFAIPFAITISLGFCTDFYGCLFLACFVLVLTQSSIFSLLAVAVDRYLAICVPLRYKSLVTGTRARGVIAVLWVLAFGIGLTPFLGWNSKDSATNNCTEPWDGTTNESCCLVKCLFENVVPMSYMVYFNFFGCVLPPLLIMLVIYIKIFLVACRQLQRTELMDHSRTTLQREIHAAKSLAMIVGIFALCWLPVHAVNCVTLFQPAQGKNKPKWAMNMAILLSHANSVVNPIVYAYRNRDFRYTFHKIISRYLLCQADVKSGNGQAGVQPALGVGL
# Assay Explanation: A2B antagonism in cAMP cell-based assay (LANCE cAMP, HEK293)
# Stated Conditions: HEK293 cells expressing human A2B receptor
Attribute Measured: IC50 (nM)

Value of measured IC50 for the entry CC1CCC(c2nc3c4cc(F)cc(F)c4nc(N)n3n2)CN1c1cnn(CC(C)(CO)CO)c1 (single isomer, unassigned) [Example 261] : 1470

P = COc1cc2nc(N)n3nc([C@H]4CC[C@@H](C)N(c5cnn([C@H](C)[C@@H](C)O)c5)C4)nc3c2cc1F (single isomer, unassigned)
Q = COc1cc(F)cc2c1nc(N)n1nc(C3CC(C)CN(c4cnn(C(C)(C)CO)c4)C3)nc21 (single isomer, unassigned) [Example 166]
Please indicate which has the smaller reported IC50: P , or Q . Give the label of your selection.
P
(P: 724 nM, Q: 2770 nM)

I = COc1cc(F)cc2c1nc(N)n1nc([C@@H]3CCCN(c4cnn(C(C)C(C)O)c4)C3)nc21 (single isomer, unassigned) [Example 202]
II = COc1cc(F)cc2c1nc(N)n1nc([C@@H]3CCCN(c4cnn(C(C)C(C)O)c4C)C3)nc21 (single isomer, unassigned) [Example 194]
Which has the higher IC50, I or II ? Return value: the label identifying the chosen record.
II

I = COc1cc2nc(N)n3nc(C4CC(C)CN(c5cn(C(C)(C)CO)nc5C)C4)nc3c2cc1F (single isomer, unassigned) [Example 170]
II = COc1cc2nc(N)n3nc([C@@H]4CCCN(c5cnn(C(C)C(C)O)c5)C4)nc3c2cc1F (single isomer, unassigned) [Example 188]
III = CC1CC(c2nc3c4cc(F)cc(F)c4nc(N)n3n2)CN(c2cnn(CC(C)(C)O)c2)C1 (single isomer, unassigned) [Example 181]
IV = COc1cc(F)cc2c1nc(N)n1nc(C3CC(C)CN(c4cnn(C(C)C(C)O)c4C)C3)nc21 (single isomer, unassigned) [Example 222]
V = Cc1nn(C(C)C(C)O)cc1N1CC(C)CC(c2nc3c4cc(F)cc(F)c4nc(N)n3n2)C1 (single isomer, unassigned) [Example 214]
Descending sort on IC50 required. # respond with the labels, arranged in the requested order
III, IV, II, V, I

1 = COc1cc2nc(N)n3nc([C@@H]4CC[C@H](C)N(c5cnn([C@H](C)[C@@H](C)O)c5)C4)nc3c2cc1F (single isomer, unassigned)
2 = COc1cc(F)cc2c1nc(N)n1nc(C3CC(C)CN(c4cnn(C(C)(C)CO)c4)C3)nc21 (single isomer, unassigned) [Example 165]
I need your help: which of the pair 1 , 2 has higher IC50? Lab note: record the label of whichever item you select.
1
(1: 3840 nM, 2: 6.4 nM)

###

# Measured On: UniProtKB P29275
Attribute Measured: IC50 (µM)

Some entries whose results are on file:
// recorded IC50 for COc1cc2nc(N)n3nc([C@@H]4CCCN(c5cnn([C@H]6CC[C@]6(C)O)c5)C4)nc3c2cc1F (single isomer, unassigned) : 0.116

# IC50 of COc1cc(F)cc2c1nc(N)n1nc(C3CC(F)CN(c4cn(CC(C)(C)O)nc4C)C3)nc21 (single isomer, unassigned) = 0.786

1 = COc1cc(F)cc2c1nc(N)n1nc([C@@H]3C[C@@H](F)CN(c4cnn(CC(C)(C)O)c4)C3)nc21 (single isomer, unassigned)
2 = COc1cc2nc(N)n3nc(C4CN(c5cnn(CC(C)(C)O)c5)CCC4C)nc3c2cc1F (single isomer, unassigned)
Which value of IC50 is smaller, the one for 1 or the one for 2 ? Choose, then provide that item's label.
1
